RUN_DESCRIPTION: Toxicity in ip dosed nude mouse assessed as maximum tolerated dose
Assay type: organism-based
STATED_CONDITIONS: in vivo
RECORDED_ENDPOINT: MTD (mg/kg)
Reply with just the number (in mg/kg).

Input: Find the measured MTD of `O=c1cc(-c2ccccc2F)[nH]c2cc3c(cc12)OCO3` and report it.
Output: 200

###

RUN_DESCRIPTION: AUC (0 to infinity) in CD1 mouse at 10 mg/kg, ip
Assay type: ADME, organism-based
Set-up: dose 10 mg/kg, route intraperitoneal, time infinity
STATED_CONDITIONS: plasma
RECORDED_ENDPOINT: AUC(0-inf) (ng·h/mL)
Numeric only. Scale: ng·h/mL

Input: Retrieve AUC(0-inf) measured for `O=c1cc(-c2ccccc2F)[nH]c2cc3c(cc12)OCO3` and print it.
Output: 417
